Known ABUTH (Abutilon theophrasti) damage score of a selection of compounds
- Test system: a variety of test species
- procedure details: Post-emergence herbicidal activity
- Format: in vivo
- Set-up: key: 0 = no damage to plant, 5 = total damage to plant
- condition notes: rate 1000 g/ha, evaluated after 13 days
measured parameter: ABUTH (Abutilon theophrasti) damage score

{"compound": "CCc1cc(N2C(=O)C(C)=C(Cl)C2O)ncc1Br (stereo not drawn)", "val": 3}
{"compound": "COC1=C(C)C(=O)N(c2cc(C(F)(F)F)c(-c3ccccc3C)cn2)C1O (stereo not drawn)", "val": 5}
{"compound": "COC1=C(C)C(=O)N(c2cc(C(F)(F)F)c(C(C)=O)cn2)C1O (stereo not drawn)", "val": 5}
{"compound": "COC1=C(C)C(=O)N(c2cc(C(F)(F)F)c(-c3cc(F)c(F)c(F)c3)cn2)C1O (stereo not drawn)", "val": 5}
{"compound": "COC1=C(C)C(=O)N(c2cc(C(F)(F)F)c(/C(C)=C/C#N)cn2)C1O (stereo not drawn)", "val": 5}
{"compound": "CCO/C=C\\c1cnc(N2C(=O)C(C)=C(Cl)C2O)cc1C(F)(F)F (stereo not drawn)", "val": 5}
{"compound": "COC1=C(C)C(=O)N(c2cc(C(F)(F)F)c(C(=O)NC(C)C)cn2)C1O (stereo not drawn)", "val": 5}
{"compound": "COC1=C(C)C(=O)N(c2cc(C(F)(F)F)c(Cl)cn2)C1O (stereo not drawn)", "val": 5}
{"compound": "COC1=C(C)C(=O)N(c2cc(C)c(S(=O)(=O)N3CCOCC3)cn2)C1O (stereo not drawn)", "val": 0}

###

Known ABUTH (Abutilon theophrasti) damage score of a selection of molecules
- Test system: a variety of test species
- procedure details: Post-emergence herbicidal activity
- Assay type: in vivo
- Set-up: key: 0 = no damage to plant, 5 = total damage to plant
- condition notes: rate 1000 g/ha, evaluated after 13 days
measured parameter: ABUTH (Abutilon theophrasti) damage score

{"molecule": "CCc1cc(N2C(=O)C(C)=C(OC)C2O)ncc1-c1ccccc1F (centres unmarked)", "val": 5}
{"molecule": "COC1=C(Br)C(O)N(c2cc(C(C)(C)C)ccn2)C1=O (centres unmarked)", "val": 4}
{"molecule": "COC1=C(C)C(=O)N(c2cc(C(F)(F)F)c(C)cn2)C1O (centres unmarked)", "val": 5}
{"molecule": "CCCC1=C(Cl)C(O)N(c2cc(C(F)(F)F)ccn2)C1=O (centres unmarked)", "val": 2}
{"molecule": "COC1=C(C)C(=O)N(c2cc(C(C)(C)CCl)c(Cl)nn2)C1O (centres unmarked)", "val": 5}
{"molecule": "COC1=C(C)C(=O)N(c2cc(C)c(S(=O)(=O)NC(C)C)cn2)C1O (centres unmarked)", "val": 5}
{"molecule": "COC1=C(C)C(=O)N(c2cc(C(C)C)c(OC)nn2)C1O (centres unmarked)", "val": 5}
{"molecule": "COC1=C(C)C(=O)N(c2cc(C)c(-c3ccccc3C)cn2)C1O (centres unmarked)", "val": 4}
{"molecule": "CCc1cc(N2C(=O)C(C)=C(OC)C2O)ncc1-c1cccc(F)c1 (centres unmarked)", "val": 5}
{"molecule": "CCC1=C(Br)C(O)N(c2cc(C(C)(C)C#N)ncn2)C1=O (racemic)", "val": 3}
{"molecule": "COC1=C(C)C(=O)N(c2cc(C)c(-c3ccoc3)cn2)C1O (centres unmarked)", "val": 3}
{"molecule": "CCCCOc1cnc(N2C(=O)C(C)=C(OC)C2O)cc1C(F)(F)F (centres unmarked)", "val": 4}
{"molecule": "CCOc1nnc(N2C(=O)C(C)=C(OC)C2O)cc1C(C)C (centres unmarked)", "val": 5}
{"molecule": "CC1=C(Cl)C(O)N(c2cc(C(F)(F)F)c(C(=O)OC(C)(C)C)cn2)C1=O (centres unmarked)", "val": 2}
{"molecule": "CC(C)C1=C(Cl)C(O)N(c2cc(C(F)(F)F)ccn2)C1=O (centres unmarked)", "val": 3}
{"molecule": "CCc1cc(N2C(=O)C(C)=C(OC)C2O)ncc1-c1ccccc1[N+](=O)[O-] (centres unmarked)", "val": 5}
{"molecule": "COC1=C(C)C(=O)N(c2cc(C)c(-c3ccccc3[N+](=O)[O-])cn2)C1O (centres unmarked)", "val": 5}
{"molecule": "COC1=C(C)C(=O)N(c2cc(C(F)(F)F)c(OCCCc3ccccc3)cn2)C1O (centres unmarked)", "val": 2}
{"molecule": "CCN(C)c1cc(N2C(=O)C(C)=C(OC)C2O)ncn1 (racemic)", "val": 3}
{"molecule": "COC1=C(C)C(=O)N(c2cc(C(F)(F)F)c(C(=O)NC(C)(C)C)cn2)C1O (centres unmarked)", "val": 5}

###

- Tested on: a variety of test species
- procedure details: Post-emergence herbicidal activity
- Assay type: in vivo
- Design: key: 0 = no damage to plant, 5 = total damage to plant
- condition notes: rate 1000 g/ha, evaluated after 13 days
Known ABUTH (Abutilon theophrasti) damage score of a selection of compounds
measured parameter: ABUTH (Abutilon theophrasti) damage score

{"compound": "CC1=C(Cl)C(O)N(c2nccc(C(F)(F)F)c2F)C1=O (centres unmarked) [AA4]", "val": 1}
{"compound": "COCCCOc1cnc(N2C(=O)C(C)=C(OC)C2O)cc1C(F)(F)F (centres unmarked) [AD83]", "val": 5}
{"compound": "COC1=C(C)C(=O)N(c2cc(C(C)(C)C)c(-c3cccc(C#N)c3)nn2)C1O (centres unmarked) [BD14]", "val": 4}
{"compound": "COC1=C(C)C(=O)N(c2cc(C(F)(F)F)c(OCCOC(C)(C)C)cn2)C1O (centres unmarked) [AD80]", "val": 4}
{"compound": "CCC/C=C/c1cnc(N2C(=O)C(C)=C(OC)C2O)cc1C(F)(F)F (centres unmarked) [AD13]", "val": 5}
{"compound": "COC1=C(C)C(=O)N(c2nccc(C(F)(F)F)c2C#N)C1O (centres unmarked) [AD5]", "val": 5}
{"compound": "CC1=C(Cl)C(O)N(c2cc(C(C)(C)C)ccn2)C1=O (centres unmarked) [AA44]", "val": 1}
{"compound": "CCCCNS(=O)(=O)c1cnc(N2C(=O)C(C)=C(OC)C2O)cc1C (centres unmarked) [AD96]", "val": 3}
{"compound": "COC1=C(C)C(=O)N(c2cc(C)c(-c3ccc(OC)c(OC)c3)cn2)C1O (centres unmarked) [AD117]", "val": 5}
{"compound": "COC1=C(C)C(=O)N(c2cc(C(C)F)ccn2)C1O (centres unmarked) [AD18]", "val": 4}
{"compound": "COC1=C(C)C(=O)N(c2cc(C(C)(C)C)ccn2)C1O (centres unmarked) [AD40]", "val": 5}
{"compound": "C#Cc1cnc(N2C(=O)C(C)=C(OC)C2O)cc1C(F)(F)F (centres unmarked) [AD20]", "val": 4}
{"compound": "COC1=C(C)C(=O)N(c2cc(C(F)(F)F)c(SCc3ccccc3)cn2)C1O (centres unmarked) [AD93]", "val": 3}
{"compound": "COC1=C(Cl)C(=O)N(c2cc(C(C)(C)C)ncn2)C1O (racemic) [CF1]", "val": 4}
{"compound": "CCC1=C(Cl)C(O)N(c2cc(C(C)(C)C#N)ncn2)C1=O (centres unmarked) [CA3]", "val": 1}
{"compound": "COC1=C(C)C(=O)N(c2cc(C)c(-c3ccc4c(c3)OCO4)cn2)C1O (centres unmarked) [AD112]", "val": 4}
{"compound": "COC1=C(C)C(=O)N(c2cc(C(F)(F)F)c(OC)cn2)C1O (centres unmarked) [AD10]", "val": 5}
{"compound": "CCOc1cnc(N2C(=O)C(C)=C(OC)C2O)cc1C(F)(F)F (centres unmarked) [AD55]", "val": 5}
{"compound": "C=Cc1ccc(N2C(=O)C(C)=C(OC)C2O)nc1 (centres unmarked) [AD33]", "val": 2}
{"compound": "CCCOc1cnc(N2C(=O)C(C)=C(OC)C2O)cc1C(F)(F)F (centres unmarked) [AD72]", "val": 5}

###

- System: a variety of test species
- procedure details: Post-emergence herbicidal activity
- Assay type: in vivo
- Parameters: key: 0 = no damage to plant, 5 = total damage to plant
- condition notes: rate 1000 g/ha, evaluated after 13 days
measured parameter: ABUTH (Abutilon theophrasti) damage score

{"compound": "CC1=C(Cl)C(O)N(c2cc(C(F)(F)F)c(C(=O)NC(C)(C)C)cn2)C1=O (stereo not shown)", "assay target": "a variety of test species", "val": 5}
{"compound": "COC1=C(C)C(=O)N(c2cc(C(C)(C)C)c(-c3ccc(F)cc3)nn2)C1O (stereo not shown)", "assay target": "a variety of test species", "val": 2}
{"compound": "COC1=C(C)C(=O)N(c2cc(Cl)c(-c3ccsc3)cn2)C1O (stereo not shown)", "assay target": "a variety of test species", "val": 3}
{"compound": "COC1=C(C)C(=O)N(c2cc(C(F)(F)F)c(C=C(C)C)cn2)C1O (stereo not shown)", "assay target": "a variety of test species", "val": 5}
{"compound": "COC1=C(C)C(=O)N(c2cc(C)c(S(=O)(=O)NC(C)(C)C)cn2)C1O (stereo not shown)", "assay target": "a variety of test species", "val": 1}
{"compound": "COc1nnc(N2C(=O)C(C)=C(Cl)C2O)cc1C (stereo not shown)", "assay target": "a variety of test species", "val": 2}
{"compound": "COC1=C(C)C(=O)N(c2ccc(C(=O)NC(C)(C)C)nn2)C1O (stereo not shown)", "assay target": "a variety of test species", "val": 5}
{"compound": "CC1=C(Cl)C(O)N(c2cc(C(C)(C)C)ncn2)C1=O (stereo not shown)", "assay target": "a variety of test species", "val": 1}
{"compound": "COC1=C(C)C(=O)N(c2cc(C(C)(C)C)c(Cl)nn2)C1O (stereo not shown)", "assay target": "a variety of test species", "val": 5}
{"compound": "COC1=C(C)C(=O)N(c2nccc(C(F)(F)F)c2F)C1O (stereo not shown)", "assay target": "a variety of test species", "val": 5}
